ASSAY_SYSTEM: BRD4 (Homo sapiens)
TEST_METHOD_NOTES: BRD4 IC50 (first BRD4 value listed in Table 2)
Format: binding
MEASUREMENT_SETUP: first BRD4 IC50 listed per compound
OBSERVED_PROPERTY: IC50 (nM)
Numeric answer only, unit nM assumed.

Item: CCN(c1ncc2c(n1)N(C)c1ccccc1C(=O)N2C)c1ccc(C(=O)N2CCC(N3CCN(C)CC3)CC2)cc1OC | System: BRD4 (Homo sapiens) | IC50: 2.06

Item: COc1cc(C(=O)N2CCC(N3CCN(C)CC3)CC2)ccc1N(C)c1ncc2c(n1)N(C)c1ccccc1C(=O)N2C | System: BRD4 (Homo sapiens) | IC50: 1990

Item: CN1C(=O)c2ccccc2N(C)c2nc(Nc3ccc(C(=O)O)cc3OC3CCCC3)ncc21 | System: BRD4 (Homo sapiens) | IC50: 732

* * *

ASSAY_SYSTEM: BRD4 (Homo sapiens, UniProt O60885)
TEST_METHOD_NOTES: BRD4 IC50 (first BRD4 value listed in Table 2)
Type: binding
MEASUREMENT_SETUP: first BRD4 IC50 listed per compound; unit nm [sic]
OBSERVED_PROPERTY: pIC50
Worth noting: pIC50 values are minus log10 of concentrations stated in mol/L.

// pIC50 lookup, compound = CN1C(=O)c2ccccc2N(C)c2nc(Nc3ccc(S(N)(=O)=O)cc3)ncc21 , result: 6.01

* * *

Test system: NOMO1
TEST_METHOD_NOTES: Cellular assay (ATPlite cell viability), NOMO1
Format: cell-based
MEASUREMENT_SETUP: Homo sapiens, NOMO-1; NOMO1 cell line
I'd appreciate it if you could supply IC50 values for the items below.
Numeric answer only, unit µM assumed.

Item: C[C@@H](Oc1cc(-n2cnc3ccc(CN4CCN(C)CC4)cc32)sc1C(N)=O)c1ccccc1C(F)(F)F [GSK461364, reference compound] | System: NOMO1 | IC50: 0.00591

Item: CN1C(=O)c2ccccc2N(C)c2nc(Nc3ccc(S(N)(=O)=O)cc3)ncc21 | System: NOMO1 | IC50: 2.5

Item: CN1C(=O)c2ccccc2N(C)c2nc(Nc3ccc(C(=O)O)cc3OC3CCCC3)ncc21 | System: NOMO1 | IC50: 6.8

Item: COc1cc(C(=O)N2CCC(N3CCN(C)CC3)CC2)ccc1Nc1ncc2c(n1)N(C)c1ccccc1C(=O)N2C | System: NOMO1 | IC50: 2

Item: COc1cc(C(=O)N2CCC(N3CCN(C)CC3)CC2)ccc1N(C)c1ncc2c(n1)N(C)c1ccccc1C(=O)N2C | System: NOMO1 | IC50: 8.6

Item: CCN(c1ncc2c(n1)N(C)c1ccccc1C(=O)N2C)c1ccc(C(=O)N2CCC(N3CCN(C)CC3)CC2)cc1OC | System: NOMO1 | IC50: 8.3

* * *

OBSERVED_PROPERTY: IC50 (nM)
Numeric answer only, unit nM assumed.

Item: COc1cc(C(=O)N2CCC(N3CCN(C)CC3)CC2)ccc1N(C)c1ncc2c(n1)N(C)c1ccccc1C(=O)N2C | System: LRRK2 (Homo sapiens, UniProt Q5S007) | IC50: 4000

Item: COc1cc(C(=O)N2CCC(N3CCN(C)CC3)CC2)ccc1Nc1ncc2c(n1)N(C)c1ccccc1C(=O)N2C | System: LRRK2 (Homo sapiens, UniProt Q5S007) | IC50: 7
